# Assay Summary: Displacement of [3H]ethynylpropylbicycloorthobenzoate from GABAA receptor from rat cortical membrane by scintillation counting in presence of 1 uM GABA
pIC50: −log10 of the molar value.
Record yes (1) whenever pIC50 is at 4 or higher; record no (0) when lower.

> print(dat)
                                   molecule  qualitative.label
1          C[C@H](c1ccccc1)n1cncc1C(=O)OCCF            yes (1)
2           CC[C@H](c1ccccc1)n1cncc1C(=O)OC            yes (1)
3             CC(=O)c1cncn1[C@H](C)c1ccccc1             no (0)
4        CCOC(=O)c1cncn1[C@H](C)c1ccc(I)cc1            yes (1)
5           COC(=O)c1cncn1[C@@H](C)c1ccccc1             no (0)
6        CC(C)OC(=O)c1cncn1[C@H](C)c1ccccc1            yes (1)
7          CCCOC(=O)c1cncn1[C@H](C)c1ccccc1            yes (1)
8  CCOC(=O)c1cncn1[C@H](C)c1ccccc1 [ETOMIDATE]            yes (1)
